Could you please report measured Kp uu for the items listed next?
Test: Brain penetration (Kp,uu) in CD-1 mice, with plasma and brain tissue binding by equilibrium dialysis
Format: in vivo
Conditions: mouse, brain and plasma (unbound), male CD-1 mice, single IV bolus 1 mg/kg

Query :: Identify measured Kp uu corresponding to `Cc1n[nH]c2c1N=C(c1c(F)cccc1F)Nc1cc(F)c(N3CCOCC3)cc1-2`
Result :: > 0.4

Query :: Answer with the recorded Kp uu of `Cc1n[nH]c2c1N=C(c1c(F)cccc1F)Nc1c(F)cc(N3CCOCC3)cc1-2` only.
Result :: > 0.4

Query :: For the molecule `Fc1cccc(F)c1C1=Nc2c(C(F)F)n[nH]c2-c2cc(N3CCOCC3)ncc2N1` , report Kp uu.
Result :: < 0.2

Query :: Supply reported Kp uu belonging to this molecule: `Cc1n[nH]c2c1N=C(c1c(F)cccc1F)Nc1cnc(N3CCO[C@@H](C(F)(F)F)C3)cc1-2`
Result :: < 0.2

Query :: Tell me measured Kp uu for `Cc1n[nH]c2c1N=C(c1c(F)cccc1F)Nc1c-2cc(N2CCN(CC(C)(C)F)CC2)nc1C` please.
Result :: > 0.4

Query :: Indicate its recorded Kp uu; the molecule in question is `Cc1n[nH]c2c1N=C(c1c(F)cccc1F)Nc1c-2cc(N2CC3(CCOCC3)C2)nc1C`
Result :: 0.2 to 0.4

Query :: Supply Kp uu value. Item: `Cc1n[nH]c2c1N=C(c1c(F)cccc1F)Nc1ccc(N3CCOCC3)cc1-2`
Result :: > 0.4

Query :: Please report Kp uu for the following molecule: `Cc1n[nH]c2c1N=C(c1c(F)cccc1F)Nc1c-2cc(N2CCN(CCF)CC2)nc1C`
Result :: > 0.4

====

Target: wt human LRRK2, catalytic site (Homo sapiens)
Construct: wt human LRRK2, catalytic site, catalytic site (ThermoFisher/USA)
Sequence (Q5S007 1879-2138 limits assumed): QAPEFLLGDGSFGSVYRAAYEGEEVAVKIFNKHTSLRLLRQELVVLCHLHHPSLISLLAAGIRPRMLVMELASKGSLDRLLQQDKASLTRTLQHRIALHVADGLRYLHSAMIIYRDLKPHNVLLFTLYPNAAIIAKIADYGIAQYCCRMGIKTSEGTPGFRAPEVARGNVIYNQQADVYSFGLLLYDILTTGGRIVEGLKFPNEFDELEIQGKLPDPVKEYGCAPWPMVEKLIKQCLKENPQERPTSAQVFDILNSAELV
Assay: TR-FRET LanthaScreen Tb Kinase Activity Assay, LRRK2 kinase inhibition
Conditions: 2 nM wt human LRRK2, 400 nM peptide, 38 μM ATP
pIC50: −log10 of the molar value.
readout-name: pIC50

Query :: Given Cc1n[nH]c2c1N=C(c1c(F)cccc1F)Nc1c-2cc(N2CCN(CCF)C[C@H]2C)nc1C (single isomer, unassigned) , respond with its pIC50.
Result :: > 8.70

Query :: Please list pIC50 recorded for the compound `CCc1n[nH]c2c1N=C(c1c(F)cccc1F)Nc1cnc(N3CCOCC3)cc1-2`
Result :: 7.00 to 8.70

Query :: Write down pIC50 measured for item `Cc1n[nH]c2c1N=C(c1c(F)cccc1F)Nc1ccc(N3CCO[C@@H](C)C3)cc1-2`
Result :: 7.00 to 8.70

Query :: Look up and state reported pIC50 for `[2H]C([2H])([2H])c1n[nH]c2c1N=C(c1c(F)cccc1F)Nc1ccc(N3CCO[C@@H](C)C3)cc1-2`
Result :: > 8.70

Query :: Quickly give me recorded pIC50 for `Cn1nccc1-c1cc2c(cn1)NC(c1c(F)cccc1F)=Nc1c(Cl)n[nH]c1-2`
Result :: > 8.70

Query :: Using known records, supply pIC50 for `COC[C@@H]1CN(c2cc3c(c(C)n2)NC(c2c(F)cccc2F)=Nc2c(C)n[nH]c2-3)CCO1`
Result :: > 8.70

Query :: Provide pIC50 value for the following compound: `Cc1n[nH]c2c1N=C(c1c(F)cccc1F)Nc1cc(F)c(N3CCOCC3)cc1-2`
Result :: 7.00 to 8.70

Query :: # return recorded pIC50 for input `COc1nc(N2CCOCC2)cc2c1NC(c1c(F)cccc1F)=Nc1c(C)n[nH]c1-2`
Result :: > 8.70
